Values were extracted from PubChem BioAssay.

# protocol details: small-molecule microarray binders of probe aCHRDL2, primary screen, biochemical, biotinylated probe, 635/667 nm fluorescence (AID 1100)
# experimental parameters: higher = more signal
observable: composite z-score
One number for each entry.

{"columns": ["molecule", "composite z-score"],
 "data": [
  ["O=C1c2ccccc2[C@@]2(Cc3ccccc3N(CC(F)(F)F)C2=O)[C@H](c2ccc(CO)cc2)N1C1CCCCC1", 0.0803],
  ["O=C1NC(=O)C2C1C=CC(C(O)C=Cc1ccc([N+](=O)[O-])cc1)N2Nc1ccccn1 (centres undefined)", 0.239],
  ["COCCOC(=O)N1C(=O)[C@@]2(c3cc(C#CCCO)ccc31)[C@H](c1ccc(O)cc1)N1[C@H](c3ccccc3)[C@H](c3ccccc3)OC(=O)[C@H]1[C@@H]2C(=O)Nc1nc2ccccc2s1", -0.148]
]}

For each listed entry, give its composite z-score.
1. C=CCN1C(=O)[C@]2(O[C@H](CCn3cc(CCO)nn3)[C@@H]([Si](C)(C)c3ccc(OC)cc3)[C@@H]2C)c2cc(NC(=O)c3ccc(OC)cc3)ccc21
2. C=C(CCCC)/C(=C/C[C@@H](OC(=O)c1ccncc1)c1ccc(CO)o1)c1cnc2ccccc2c1
3. COc1ccc([Si](C)(C)[C@H]2[C@H](CCO)O[C@@]3(C(=O)N(Cc4ccc(N5CCCCC5=O)cc4)c4ccccc43)[C@@H]2C)cc1
4. C=C(CCCC)/C(=C/C[C@@H](OC(=O)c1ccncc1)c1cccc(OCCO)c1)c1cc(C(=O)OC)ccc1OC

Response:
1: 0.794; 2: -0.524; 3: 0.37; 4: 0.273

====

# target or system: Calmodulin-1 (Homo sapiens) (UniProt P0DP23)
# protocol details: CALM1 binders on microarrays, EGTA buffer, profiling panel, biochemical, small-molecule microarray, Cy5-labelled CALM1 (AID 1111);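 further: labelled calmodulin applied in Tris saline Tween buffer holding calcium plus EGTA and DTT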
# experimental parameters: Cy5-CALM1 binding fluorescence, higher = more signal
observable: composite z-score
One number for each entry.

{"columns": ["compound", "composite z-score"],
 "data": [
  ["O=C(CS)NCCCCCNC(=O)[C@H]1C[C@H]2C(=O)N[C@@H](Cc3ccccc3)C(=O)N2[C@H]1c1ccc(O)cc1", 0.741]
]}

Please state, for each entry, its recorded composite z-score.
1. COc1cc2c(cc1OC)CN(C(=O)[C@H]1[C@@H]3C(=O)O[C@@H](c4ccccc4)[C@@H](c4ccccc4)N3[C@@H](c3ccccc3OCCO)[C@]13C(=O)Nc1ccc(C#CC4(O)CCCCCC4)cc13)CC2
2. CN1C(=O)C2C=CC(C(O)c3ccc(N(C)C)cc3)N(Nc3ccc([N+](=O)[O-])cc3[N+](=O)[O-])C2C1=O (stereo not drawn)

Response:
1.16
0.49

====

# protocol details: binders of probe aFSTL3 on microarray, primary screen, stem cell growth factor project, biochemical, small-molecule microarray, fluorescence 635/667 (AID 1064);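 further: measures binding of the biotinylated anti-FSTL3 antibody to printed compounds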
# experimental parameters: higher = more signal
Returns one of 1 or -1; 1 when composite z-score is >= 0.2.

Some entries whose results are on file:
{"columns": ["molecule", "answer label"],
 "data": [
  ["Cc1ccc(S(=O)(=O)c2cc3oc2CC[C@@H](CO)NC(=O)N(C)Cc2cn(nn2)C[C@H](Cc2ccccc2)NC3=O)cc1", -1],
  ["O=C1C[C@@](C(=O)NC2CC2)(c2ccc([N+](=O)[O-])cc2)[C@@H](c2ccc(CO)cc2I)N1CC12CC3CC(CC(C3)C1)C2", -1],
  ["C=CCC(OC(C)=O)[C@@H]1[C@@H](N(Cc2cc3ccccc3o2)C(=O)c2ccc(C)cc2)c2cc(OCCCO)ccc2N1C(=O)c1ccc2ccccc2n1 (some centres not stated)", 1],
  ["C=CCC(OC(C)=O)[C@@H]1[C@@H](N(Cc2ccc(-c3cccc(C(F)(F)F)c3)o2)C(=O)Cc2ccc(F)cc2)c2cc(OCCCO)ccc2N1C(=O)c1ccc(-c2ccccc2)cc1 (some centres not stated)", -1],
  ["C=C(COC)/C(=C/C[C@H](OC(C)=O)c1ccc(OCCO)cc1)c1cnc2ccccc2c1", -1],
  ["CN(C)c1ccc(C(O)C2C=CC3C(=O)NC(=O)C3N2Nc2ccc(Cl)cc2Cl)cc1 (configuration not stated)", 1],
  ["COCCOC(=O)N1C(=O)[C@@]2(c3ccccc31)[C@H](C(=O)N1CCc3cc(OC)c(OC)cc3C1)[C@H]1C(=O)O[C@H](c3ccccc3)[C@H](c3ccccc3)N1[C@@H]2c1ccccc1OCCO", 1],
  ["O=C1C[C@@](C(=O)NCCN2CCOCC2)(c2ccc([N+](=O)[O-])cc2)[C@@H](c2ccc(CO)cc2)N1C1CCCCC1", 1],
  ["CC(=O)NCCCC[C@@H]1NC(=O)[C@H]2C[C@@H](C(=O)NCCCCCCN(C)C)[C@@H](c3cccc(OCCO)c3)N2C1=O", -1],
  ["C=CCc1cccc([C@@H]2[C@@H](C)CC[C@H]3C(=O)N4[C@H](c5cccc(CC=C)c5)[C@@H](C)CC[C@H]4C(=O)N23)c1", -1]
]}

Prompt: Entry "CO[C@@H]1COC(=O)CC=C[C@H](C)COC(=O)[C@H](Cc2ccccc2)NC(=O)CC=C[C@H]1C" : is its composite z-score no less than 0.2?
Response: -1

Prompt: Item: "CCCC[C@@H]1C[C@H]1[C@@H](NC(=O)c1cccs1)c1ccc(Cl)cc1"
Response: 1

Prompt: Next: "CC(C)CNC(=O)[C@@]1(C)c2ccccc2C(=O)N(Cc2ccc(OC(F)(F)F)cc2)[C@H]1c1ccc(CO)cc1"
Response: 1

Prompt: Next: "C#CCCCON=C1C[C@@H](O)[C@@H](O)[C@@H]2[C@@H]3C(=O)N(Cc4ccc5c(c4)OCO5)C(=O)[C@@H]3CC[C@H]12"
Response: -1

Prompt: Proceed to "COc1ccc([Si](C)(C)[C@H]2[C@H](CCO)O[C@@]3(C(=O)N(Cc4ccc(N5CCCCC5=O)cc4)c4ccccc43)[C@@H]2C)cc1"
Response: -1

Prompt: Another: O=C1OCCC=C[C@H]2OC34C=CCN(Cc5ccccc5)C(=O)[C@H]3N(CCO)C(=O)[C@@H]4C12 (some centres not stated)
Response: 1

Prompt: Moving on to the next molecule: "CCCC/C=C/[C@H]([C@@H](O)Cc1ccccc1)N(CC#Cc1ccccc1)Cc1ccccc1Br"
Response: 1

Prompt: Then "C=CCOC(=O)[C@@H]1[C@H]2C(=O)O[C@H](c3ccccc3)[C@H](c3ccccc3)N2[C@H](c2ccc(OCCOC(=O)[C@H]3C[C@H]4C(=O)N[C@@H](CCCCNC(C)=O)C(=O)N4[C@H]3c3ccc(O)cc3)cc2)[C@@]12C(=O)Nc1ccc(I)cc12" ?
Response: -1

====

# protocol details: small-molecule microarray binders of probe aEGFR, primary screen, biochemical, biotinylated probe, 635/667 nm fluorescence (AID 1097);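 further: probe is a biotinylated anti-EGFR antibody binding compounds printed on slides; score combines fluorescence near 667 nm and signal to noise of each spot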
# experimental parameters: higher = more signal
Rule: fulfilled for composite z-score not less than -0.1, not fulfilled for anything less.

Would you please look over these solved cases?
{"columns": ["compound", "answer label"],
 "data": [
  ["Cc1ccc(S[C@]2(C(=O)O)CC(=O)N(Cc3cc(C(F)(F)F)cc(C(F)(F)F)c3)[C@@H]2c2ccc(CO)cc2I)cc1", "not fulfilled"],
  ["CC(C)NC(=O)[C@@]1(Cc2ccccc2I)c2ccccc2C(=O)N(C2CCCCC2)[C@H]1c1ccc(CO)cc1", "fulfilled"],
  ["COc1ccc([Si](C)(C)[C@@H]2[C@@H](CCO)O[C@]3(C(=O)N(Cc4ccccc4)c4ccccc43)[C@H]2C)cc1", "not fulfilled"],
  ["C=CC[C@]1(C(=O)N2CCCCC2)N=C(c2ccc(OCCCO)cc2)O[C@H]1c1ccccc1N=[N+]=[N-]", "fulfilled"],
  ["CN1C2C=C(c3ccc(CO)cc3)C(C3C(=O)N(C(N)=O)C(=O)C32)C1c1cccs1 (stereo not drawn)", "fulfilled"]
]}

Prompt: Reported composite z-score reaches at least -0.1 for COc1ccc(C(O)C2C=CC3C(=O)N(C)C(=O)C3N2N2CCCCC2)cc1OCc1ccccc1 (stereo not drawn) ?
Response: fulfilled

Prompt: Same thing, different compound: "CCCCCCc1nc(C2CC2)c(C)c2c1[Si](C(C)C)(C(C)C)OC2"
Response: not fulfilled

Prompt: How about this compound: O=C1C2C=CC(C(O)C#Cc3ccccc3)N(Nc3ccccc3)C2C(=O)N1c1ccccc1 (stereo not drawn)
Response: not fulfilled

====

# System: Fibrinogen (Alexa647-labelled)
# protocol details: fibrinogen binders on compound microarrays, profiling panel, artefact control for SMM control-protein annotation, biochemical, small-molecule microarray, 635/667 nm fluorescence (AID 1131);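 further: z-score merges 667 nm fluorescence with per-spot signal-to-noise over triplicate slides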
# experimental parameters: fibrinogen-A647 binding fluorescence, higher = more signal
So I've got a bunch of compounds here, and I need their composite z-score values.

Look over these answered cases.
{"columns": ["compound", "observable", "experimental result"],
 "data": [
  ["C[C@H]1NC(=O)[C@@H](C)NC(=O)[C@@]23C(=O)N[C@@H](Cc4ccccc4)C2[C@H](C)[C@@]2(C)O[C@H]2C3/C=C/C/C=C\\CNC1=O (some centres undefined)", "composite z-score", -0.388],
  ["COCCOC(=O)N1C(=O)[C@@]2(c3cc(C#CCC(C(=O)OC)C(=O)OC)ccc31)[C@H](c1ccccc1OCCO)N1[C@H](c3ccccc3)[C@H](c3ccccc3)OC(=O)[C@H]1[C@@H]2C(=O)N1CCCCCCC1", "composite z-score", 0.744],
  ["CC(C)NC(=O)[C@@]1(Cc2ccccc2I)c2ccccc2C(=O)N(C2CCCCC2)[C@H]1c1ccc(CO)cc1", "composite z-score", 0.991]
]}

Please turn your attention to the following entry.
Prompt: Return reported composite z-score; argument: "CC(C)(C)OC(=O)CC[C@]1(C(=O)N2CCCCC2)N=C(c2ccc(OCCCO)cc2)O[C@H]1c1ccccc1"
Response: 0.985
